Recorded values, source patent US20260021085A1.

- tested on: hGYS1 enzyme, glycogen synthesis in HeLa cells (Homo sapiens (Human), UniProt P13807)
- Sequence (P13807 whole entry): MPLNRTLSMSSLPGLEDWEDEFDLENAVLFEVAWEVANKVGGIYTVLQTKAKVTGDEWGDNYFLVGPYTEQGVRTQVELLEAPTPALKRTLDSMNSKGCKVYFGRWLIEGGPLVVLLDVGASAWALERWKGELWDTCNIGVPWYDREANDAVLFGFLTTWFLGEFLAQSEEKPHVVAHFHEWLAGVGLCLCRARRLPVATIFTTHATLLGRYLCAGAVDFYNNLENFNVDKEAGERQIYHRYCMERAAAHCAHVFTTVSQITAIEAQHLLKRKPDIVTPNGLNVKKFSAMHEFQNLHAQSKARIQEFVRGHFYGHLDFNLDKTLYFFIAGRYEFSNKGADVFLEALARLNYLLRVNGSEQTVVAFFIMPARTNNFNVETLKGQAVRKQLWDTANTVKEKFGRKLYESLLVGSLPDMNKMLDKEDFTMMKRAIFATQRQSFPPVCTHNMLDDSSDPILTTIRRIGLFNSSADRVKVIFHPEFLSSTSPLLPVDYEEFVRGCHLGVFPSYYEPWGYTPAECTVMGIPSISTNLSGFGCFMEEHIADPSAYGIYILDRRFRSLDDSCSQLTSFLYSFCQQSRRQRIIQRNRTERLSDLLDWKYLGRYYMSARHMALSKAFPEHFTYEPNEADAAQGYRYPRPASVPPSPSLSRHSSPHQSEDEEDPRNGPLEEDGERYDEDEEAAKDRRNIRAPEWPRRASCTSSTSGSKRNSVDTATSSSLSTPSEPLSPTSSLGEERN
- test: GYS1 cell based assay (glycogen synthesis in HeLa cells, Glucose-glo)
- conditions: starved HeLa cells, 24 h incubation; geometric mean of at least 2 assay runs; read-out: Cellular IC50
Hi! Could you tag entries with IC50 below 10 µM as T, and those at or above as F? Much appreciated.

- molecule: "CC(C)c1ccc([C@@H](NC(=O)[C@@H]2CCC[C@@H]2C(=O)O)c2cccc3c2NC(=O)CC3)cc1"
  label value: "F"
- molecule: "CC(C)c1ccc([C@@H](NC(=O)C2CC(O)CC2C(=O)O)c2ccccc2)cc1 (single isomer, unassigned) [Compound 16]"
  label value: "F"
- molecule: "Cc1ccccc1[C@H](NC(=O)[C@@H]1CCC[C@@H]1C(=O)O)c1ccc(C2CC2)cc1"
  label value: "F"
- molecule: "CC(C)c1ccc([C@@H](NC(=O)[C@@H]2CCC[C@@H]2C(=O)O)c2cccc3oc(=O)[nH]c23)cc1"
  label value: "F"
- molecule: "O=C(O)[C@H]1CCC[C@H]1C(=O)N[C@@H](c1ccccc1)c1ccc(C2CCC2)cn1"
  label value: "T"
- molecule: "CC(C)c1ccc([C@@H](NC(=O)[C@@H]2CCC[C@@H]2C(=O)O)c2cccs2)cc1"
  label value: "T"
- molecule: "COc1ccccc1[C@H](NC(=O)[C@@H]1CCC[C@@H]1C(=O)O)c1ccc(C(C)C)cc1"
  label value: "F"
- molecule: "CC(C)c1ccc([C@@H](NC(=O)[C@@H]2CCC[C@@H]2C(=O)O)c2cccc3[nH]c(=O)oc23)cc1"
  label value: "F"
- molecule: "CC(C)c1c(F)cc([C@@H](NC(=O)[C@@H]2CCC[C@@H]2C(=O)O)c2ccccc2)cc1F"
  label value: "T"
- molecule: "CC(C)c1ccc([C@@H](NC(=O)[C@@H]2CCC[C@@H]2C(=O)O)c2ccccc2NC(=O)C2CNC2)cc1"
  label value: "F"
- molecule: "O=C(O)[C@H]1CCC[C@H]1C(=O)N[C@@H](c1ccccc1)c1ccc(C2CCC2)c(F)c1"
  label value: "F"
- molecule: "O=C(O)[C@H]1CCC[C@H]1C(=O)N[C@@H](c1ccccc1)c1ccc(C2CC2)cn1"
  label value: "F"
- molecule: "CC(C)c1ccc([C@@H](NC(=O)C2CC(F)CC2C(=O)O)c2ccccc2)cc1 (single isomer, unassigned)"
  label value: "F"
- molecule: "CC(C)c1ccc([C@@H](NC(=O)[C@@H]2CCC[C@@H]2C(=O)O)c2cccnc2N)cc1"
  label value: "F"
- molecule: "CC(C)c1ccc([C@@H](NC(=O)[C@@H]2CCC[C@@H]2C(=O)O)c2ccn[nH]2)cc1F"
  label value: "F"
